# maps each entry to its koff
Target: T1, EsCas13d, nuclease-dead (Eubacterium siraeum, UniProt B0MS50, R295A;H300A;R849A;H854A)
T1 sequence: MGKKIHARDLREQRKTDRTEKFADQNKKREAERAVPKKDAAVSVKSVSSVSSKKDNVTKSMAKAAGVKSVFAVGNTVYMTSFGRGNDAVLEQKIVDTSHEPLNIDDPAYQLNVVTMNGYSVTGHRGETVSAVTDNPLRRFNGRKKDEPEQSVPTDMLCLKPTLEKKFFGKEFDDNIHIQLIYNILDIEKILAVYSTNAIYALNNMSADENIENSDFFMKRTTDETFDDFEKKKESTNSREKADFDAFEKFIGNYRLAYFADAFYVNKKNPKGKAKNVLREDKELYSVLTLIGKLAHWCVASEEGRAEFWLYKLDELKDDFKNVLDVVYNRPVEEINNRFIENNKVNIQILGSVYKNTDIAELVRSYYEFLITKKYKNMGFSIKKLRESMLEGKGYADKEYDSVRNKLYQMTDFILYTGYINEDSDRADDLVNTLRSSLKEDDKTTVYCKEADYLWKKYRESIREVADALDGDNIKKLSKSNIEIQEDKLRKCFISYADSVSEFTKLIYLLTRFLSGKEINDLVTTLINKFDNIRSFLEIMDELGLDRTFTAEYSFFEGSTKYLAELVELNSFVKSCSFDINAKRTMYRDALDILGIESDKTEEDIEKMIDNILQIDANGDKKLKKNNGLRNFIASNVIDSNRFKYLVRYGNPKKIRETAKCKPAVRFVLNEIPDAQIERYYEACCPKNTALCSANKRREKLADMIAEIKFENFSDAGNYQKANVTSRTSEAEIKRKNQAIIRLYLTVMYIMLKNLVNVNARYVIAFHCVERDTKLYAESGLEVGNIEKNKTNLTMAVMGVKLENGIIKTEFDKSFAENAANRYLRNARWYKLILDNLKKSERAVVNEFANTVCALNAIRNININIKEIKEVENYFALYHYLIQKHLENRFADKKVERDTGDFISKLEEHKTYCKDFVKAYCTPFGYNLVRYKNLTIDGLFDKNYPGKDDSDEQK
Assay: BLI; crRNA (strand 1, pre-loaded); Mg2+; 40 mM Tris-HCl pH 7.5, 150 mM NaCl, 6 mM MgCl2, 1 mM DTT, 0.1% Tween-20, 0.2 mg/ml BSA; temperature not stated
Conditions: tags: His6-TwinStrep-SUMO cleaved; label: 3' biotin on strand 2
Write the numeric value and follow it with the unit.

Take a look at these entries with their results.
crRNA-1 (MT) target (mixed) RNA 1: CACCCGUGCAAAAUUGCAGGGGUCUAAAACUUUUGGUUGACCACAUCUUGAA RNA 2: UUGGAAAACUUCAAGAUGUGGUCAACCAAAAUGCACAAGC	0.00038 s⁻¹
target 1 5'-UAA (60-mer) (mixed) RNA 1: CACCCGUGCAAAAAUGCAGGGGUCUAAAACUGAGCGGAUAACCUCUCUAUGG RNA 2: CCACAUCUACGAAUUCUAACCAUAGAGAGGUUAUCCGCUCACCGAGAUCGGAAGAGCACA	0.00061 s⁻¹
target 1 C4A (60-mer) (mixed) RNA 1: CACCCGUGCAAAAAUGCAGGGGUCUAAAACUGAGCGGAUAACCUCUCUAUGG RNA 2: CCACAUCUACGAAUUCGUACCAUAGAGAGGUUAUCCGAUCACCGAGAUCGGAAGAGCACA	0.00035 s⁻¹
target 1 C22A (60-mer) (mixed) RNA 1: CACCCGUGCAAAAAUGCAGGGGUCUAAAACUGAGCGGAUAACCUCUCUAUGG RNA 2: CCACAUCUACGAAUUCGUAACAUAGAGAGGUUAUCCGCUCACCGAGAUCGGAAGAGCACA	0.00066 s⁻¹
target 1 3'-GUU (60-mer) (mixed) RNA 1: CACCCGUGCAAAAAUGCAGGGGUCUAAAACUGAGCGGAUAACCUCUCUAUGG RNA 2: CCACAUCUACGAAUUCGUACCAUAGAGAGGUUAUCCGCUCAGUUAGAUCGGAAGAGCACA	0.0011 s⁻¹

Turning to the following binder.
Entry under test: target 1 3'-UAA (60-mer) (mixed) RNA 1: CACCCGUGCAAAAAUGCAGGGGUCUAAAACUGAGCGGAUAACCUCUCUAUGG RNA 2: CCACAUCUACGAAUUCGUACCAUAGAGAGGUUAUCCGCUCAUAAAGAUCGGAAGAGCACA . Its koff was 0.00061 s⁻¹
